Documented Ki across a set of compounds
assay-target: orexin-2 receptor (OX2R) (Homo sapiens (Human), UniProt O43614)
Sequence (O43614 whole entry): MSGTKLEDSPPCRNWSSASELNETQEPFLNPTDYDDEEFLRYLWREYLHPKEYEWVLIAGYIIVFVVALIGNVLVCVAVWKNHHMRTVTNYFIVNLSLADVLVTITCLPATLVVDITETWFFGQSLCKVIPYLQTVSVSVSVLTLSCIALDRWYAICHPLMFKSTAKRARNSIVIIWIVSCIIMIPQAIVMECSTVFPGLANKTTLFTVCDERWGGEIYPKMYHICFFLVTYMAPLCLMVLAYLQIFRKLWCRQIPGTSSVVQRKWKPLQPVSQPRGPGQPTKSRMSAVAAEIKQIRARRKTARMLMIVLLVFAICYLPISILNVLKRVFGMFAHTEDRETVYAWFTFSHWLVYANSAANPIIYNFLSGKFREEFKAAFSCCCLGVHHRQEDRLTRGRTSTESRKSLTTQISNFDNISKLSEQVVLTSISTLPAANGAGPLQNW
assay-readout: Ki (nM)

[[record]]
compound = "Cc1ccc(-n2nccn2)c(C(=O)N2C[C@H](Nc3nccc4ccccc34)CC[C@H]2C)c1 [H-4]"
assay_value = 0.56

[[record]]
compound = "C[C@@H]1CC[C@@H](Oc2nccc3ccccc23)CN1C(=O)c1ccccc1-n1nccn1 [F-2]"
assay_value = 0.11

[[record]]
compound = "C[C@@H]1CC[C@@H](Oc2ccnc3c(F)cccc23)CN1C(=O)c1ccccc1-n1nccn1 [E-2]"
assay_value = 0.55

